# systemUnderTest: T1, human MSLN-R3 protein (human, UniProt Q13421 487-598)
# T1 construct: also called hMSLN-R3
# T1 sequence (Q13421 495-606, form in doubt): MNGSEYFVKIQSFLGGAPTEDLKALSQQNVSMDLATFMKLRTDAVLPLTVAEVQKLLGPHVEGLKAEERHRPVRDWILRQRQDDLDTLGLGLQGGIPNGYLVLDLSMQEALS
# testDetails: ELISA on coated antigen, antibody 0.001 nM
recordedMetric: OD450 (OD450)
Please state the figure in OD450; there is no need to write the unit.

- binder: "F7.44.20-H8 (scFv, not shown: small tags and cut ends, also called S009-F7.44.20 humanized antibody VH1a + VL4) scFv: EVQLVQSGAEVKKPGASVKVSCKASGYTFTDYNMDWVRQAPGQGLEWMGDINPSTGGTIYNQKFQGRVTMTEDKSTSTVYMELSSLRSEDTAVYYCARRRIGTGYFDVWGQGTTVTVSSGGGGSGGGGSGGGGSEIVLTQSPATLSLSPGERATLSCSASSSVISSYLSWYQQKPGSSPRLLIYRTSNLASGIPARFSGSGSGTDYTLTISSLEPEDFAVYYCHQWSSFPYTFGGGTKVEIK"
  recordedMetric: "OD450"
  assayResult: 0.04

What value of OD450 has been reported for the following binder? F7.44.20-H12 (scFv, not shown: small tags and cut ends, also called S009-F7.44.20 humanized antibody VH2 + VL4) scFv: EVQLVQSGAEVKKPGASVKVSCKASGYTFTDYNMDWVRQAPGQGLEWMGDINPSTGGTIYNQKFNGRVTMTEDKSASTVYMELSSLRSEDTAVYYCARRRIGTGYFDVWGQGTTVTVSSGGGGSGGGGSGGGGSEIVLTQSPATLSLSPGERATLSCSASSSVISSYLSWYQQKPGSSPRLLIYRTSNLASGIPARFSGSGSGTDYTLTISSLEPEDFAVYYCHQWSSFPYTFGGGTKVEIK
0.05

Requested read-out: OD450. Entry: F7.44.20-H15 (scFv, not shown: small tags and cut ends, also called S009-F7.44.20 humanized antibody VH2a + VL3) scFv: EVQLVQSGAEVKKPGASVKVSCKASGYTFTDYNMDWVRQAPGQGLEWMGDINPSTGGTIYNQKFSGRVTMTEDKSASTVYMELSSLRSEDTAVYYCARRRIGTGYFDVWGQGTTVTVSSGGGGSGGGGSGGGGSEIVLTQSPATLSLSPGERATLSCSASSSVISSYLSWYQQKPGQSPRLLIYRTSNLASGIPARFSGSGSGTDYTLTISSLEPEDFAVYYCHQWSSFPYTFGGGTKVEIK
0.04
